system: UO-31 renal; experiment: NCI-60 one-dose screen, 48 h (100 = growth as untreated, 0 = no growth, -100 = all killed); settings: 10 µM
About 83,000 compounds went through this panel and 20% of them were active in at least one assay; those are over-represented in the sample as a whole.
# growth annotations
Measured property: growth (%)

>>> data_value("COP(=O)(CC(F)(F)C(F)(F)F)OC")
-81.8
>>> data_value("CC1=C(CCC=NNC(N)=O)C2=C(C)C3(CC3)[C@@](C)(O)C(=O)C2=C1")
-65.2
>>> data_value("O=C(/C=C/c1cccc(Br)c1)c1nc2ccccc2n1Cc1ccc(Br)cc1")
-57.3
>>> data_value("CC1=C2C(=C[C@@](C)(COP(=O)(Oc3ccccc3)Oc3ccccc3)[C@@H]2O)C(=O)[C@@](C)(O)C12CC2")
-68.6

---

tested on: HL-60(TB) leukemia; assay: NCI-60 one-dose screen, 48 h (100 = growth as untreated, 0 = no growth, -100 = all killed); details: 10 µM unless noted
The panel holds about 83,000 compounds, 20% with a hit somewhere; the sample as a whole holds those more often.
Measured property: growth (%)

>>> data_value("COc1ccc2[nH]c(=O)c(CSc3nccc(-c4ccc(Cl)cc4)n3)cc2c1")
29.3
>>> data_value("Cc1cc(Cl)ccc1NC(=O)Nc1ccc(-c2ccc3c(c2)NC(=O)/C3=C\\c2ccc[nH]2)cc1")
78.9
>>> data_value("CC(C)(C)c1cc(-c2cc(-c3ccccc3)[nH]c(=O)c2C#N)cc(C(C)(C)C)c1")
82.3

---

system: HL-60(TB) leukemia; test: NCI-60 one-dose screen, 48 h (100 = growth as untreated, 0 = no growth, -100 = all killed); conditions: 10 µM unless noted
About 83,000 compounds went through this panel and 20% of them were active in at least one assay; those are over-represented in the sample as a whole. Calls of active or inactive are those of the source. How the source made its calls: active means growth percent below 10; inactive means the rest.
Measured property: growth

>>> data_value("O=C1c2cccc3c(N4CCN(Cc5ccccc5)CC4)ccc(c23)C(=O)N1c1cccc(-c2nn(-c3ccccc3)cc2-c2nc3ccccc3s2)c1")
"105% (inactive)"
>>> data_value("O=C1CCC(N2C(=O)c3cccc(NCCCCCC(=O)N4CCN(c5ccc6nc7c(nc6c5C(F)(F)F)C(=O)c5ncccc5C7=O)CC4)c3C2=O)C(=O)N1 (stereo not given)")
"-25.2% (active)"
>>> data_value("COc1ccc(S(=O)(=O)Nc2ccc(-c3ccc4c(c3)NC(=O)/C4=C\\c3ccc[nH]3)cc2)cc1OC")
"76.8% (inactive)"
>>> data_value("CC1CCc2c(sc3nc(SCC(=O)c4cccc(Br)c4)n(-c4ccccc4)c(=O)c23)C1 (stereo not given)")
"64.7% (inactive)"
>>> data_value("Cc1ccc(/C=C/c2n(Cc3ccc4ccccc4c3)c3ccccc3[n+]2Cc2ccc3ccccc3c2)cc1")
"-45.5% (active)"
>>> data_value("O=C(O)c1cccc(-c2ccc(/C=N/NC(=O)c3[nH]c4ccc(Br)cc4c3-c3ccccc3)o2)c1")
"88.5% (inactive)"
>>> data_value("O=C1NC(=NC23CC4CC(CC(C4)C2)C3)N/C1=C\\c1ccc2ncoc2c1")
"-8.15% (active)"
>>> data_value("CC(=O)Nc1ccc(C(=O)NC(=S)Nc2ccc(S(N)(=O)=O)cc2)cc1")
"95.5% (inactive)"
>>> data_value("Cc1ccc(C(=O)NNC(=O)CSc2nc3ccccc3c(=O)[nH]2)cc1")
"93.3% (inactive)"
>>> data_value("O=C1NC(=S)S/C1=C\\c1cn(-c2ccccc2)nc1-c1ccc([N+](=O)[O-])cc1")
"9.92% (active)"
>>> data_value("Cc1cccc(NC(=O)CN2CCN(c3ncnc4c3cnn4-c3ccccc3)CC2)c1")
"88.3% (inactive)"
>>> data_value("COc1cc(/C=C/C(=O)c2ccc(F)cc2)ccc1Oc1nc(Nc2ccc(F)cc2)nc(N(C)C)n1")
"61.3% (inactive)"
>>> data_value("Cc1ccc(C(=O)C[n+]2cccc3c4ccccc4ccc32)cc1")
"1.77% (active)"
>>> data_value("CC(C)(C)C(=O)C1CC(C#N)=C2C=Cc3c(ccc4ccccc34)N21 (stereo not given)")
"108% (inactive)"
>>> data_value("O=C(c1ccc([N+](=O)[O-])c([N+](=O)[O-])c1O)n1[nH]c(=O)c2ccccc2c1=O")
"44.6% (inactive)"
>>> data_value("O=C(c1ccc(O)cc1)C1[C@H](c2ccc(Cl)cc2)[C@@H](c2ccccc2)NC12C(=O)Nc1ccccc12 (stereo not given in full)")
"-33.3% (active)"
>>> data_value("O=C(NNC(=O)c1ccc(OCc2nc3ccc(Cl)cc3[nH]2)cc1)Nc1ccc(Cl)c(Cl)c1")
"103% (inactive)"
>>> data_value("COc1ccc2[nH]cc(-c3cc(N)n4nc(-c5cn(C)c6ccccc56)cc4n3)c2c1")
"-40.7% (active)"
>>> data_value("CC[C@]12C=CCN3CC[C@]4(C(=C(C(=O)OC)C1)Nc1cc(OC)c([C@@H]5[C@H]6O[C@H]6[C@@]6(CC)CC(C(=O)OC)=C7Nc8cc(O)ccc8[C@@]78CCN5[C@@H]68)cc14)[C@@H]32")
"-44.4% (active)"
>>> data_value("CC(C)CSc1nc(NCCc2c[nH]c3ccccc23)c(C#N)c(-c2ccccc2)n1")
"60.7% (inactive)"
>>> data_value("Cc1ccc(C(=O)NN2C(=O)/C(=C/C=C/c3ccc([N+](=O)[O-])o3)SC2=S)cc1")
"2.23% (active)"
>>> data_value("O=C(N/N=C/c1ccc(Cl)o1)c1[nH]c2ccc(Br)cc2c1-c1ccccc1")
"-42.4% (active)"
>>> data_value("COc1ccc(-c2ccnc(SCc3cc4cc(OC)ccc4[nH]c3=O)n2)cc1")
"-8.43% (active)"
>>> data_value("COc1ccccc1NC(=O)N/N=C/c1c[nH]c2ccccc12")
"5.87% (active)"
>>> data_value("COc1ccc(N=Nc2c(N)nn3c(-c4ccc([N+](=O)[O-])cc4)ccnc23)cc1")
"85.7% (inactive)"
>>> data_value("COc1cccc(COc2ccc(/C=C3\\Oc4cc(O)ccc4C3=O)cc2)c1")
"79.5% (inactive)"
>>> data_value("COc1cc2oc(-c3cccc(C(=O)Nc4ccc(Cl)cc4)c3)cc(=O)c2c(OCCNC(=O)[C@@H](N)CCC(=O)O)c1OC")
"81.6% (inactive)"
>>> data_value("COc1ccc2oc3c4[nH]c5ccccc5c4c4c(c3c2c1)C(=O)N(C(=O)OC(C)(C)C)C4=O")
"-7.65% (active)"
>>> data_value("O=C(O)CCCCCCCCCCN1C(=O)/C(=C/c2cnc(-c3ccccc3)s2)SC1=S")
"63.6% (inactive)"
>>> data_value("C=CCSc1nnc(-c2c(C)nc3sccn23)o1")
"119% (inactive)"

Reference for the values: PubChem BioAssay (NCI)
